Tested system: EphA3-EphrinA5 (Homo sapiens, UniProt P29320)
Sequence (P29320 21-541 limits assumed): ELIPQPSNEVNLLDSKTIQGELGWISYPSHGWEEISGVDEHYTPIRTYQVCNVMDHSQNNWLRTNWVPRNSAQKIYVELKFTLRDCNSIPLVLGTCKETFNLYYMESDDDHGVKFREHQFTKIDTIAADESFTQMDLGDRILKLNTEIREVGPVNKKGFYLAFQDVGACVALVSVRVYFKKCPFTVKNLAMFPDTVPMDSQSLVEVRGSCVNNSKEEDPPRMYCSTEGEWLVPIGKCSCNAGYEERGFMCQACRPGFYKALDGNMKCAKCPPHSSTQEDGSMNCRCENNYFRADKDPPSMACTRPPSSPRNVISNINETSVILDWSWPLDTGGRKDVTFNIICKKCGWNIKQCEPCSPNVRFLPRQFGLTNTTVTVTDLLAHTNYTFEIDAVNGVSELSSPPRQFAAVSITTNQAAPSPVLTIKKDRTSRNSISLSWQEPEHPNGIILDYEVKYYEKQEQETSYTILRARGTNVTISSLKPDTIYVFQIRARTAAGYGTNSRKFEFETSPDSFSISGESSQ
Experiment description: Octet, immobilized human EphA3 binding to human EphrinA5
Experimental conditions: Human EphA3-EphrinA5; immobilized human EphA3; 50 nM soluble human EphrinA5; association; relative; read-out: Relative Association IC50
Binary call on IC50 with cut-off 1000 nM: strictly below means 1.0, and equality or higher means 0.0.

>  <Smiles string>
Oc1c(Br)cc(CN2CCOCC2)c2cccnc12

>  <Tested system>
EphA3-EphrinA5 (Homo sapiens, UniProt P29320)

>  <Qualitative label>
1.0

$$$$
>  <Smiles string>
O=S1(=O)CCN(Cc2ccc(O)c3ncccc23)CC1

>  <Tested system>
EphA3-EphrinA5 (Homo sapiens, UniProt P29320)

>  <Qualitative label>
0.0

$$$$
>  <Smiles string>
Oc1ccc(CN2CCN(Cc3ccc(C(F)(F)F)cc3)CC2)c2cccnc12

>  <Tested system>
EphA3-EphrinA5 (Homo sapiens, UniProt P29320)

>  <Qualitative label>
0.0

$$$$
>  <Smiles string>
Oc1c(I)cc(CN2CCOCC2)c2cccnc12

>  <Tested system>
EphA3-EphrinA5 (Homo sapiens, UniProt P29320)

>  <Qualitative label>
1.0

$$$$
>  <Smiles string>
O=[N+]([O-])c1cc(CN2CCOCC2)c2cccnc2c1O

>  <Tested system>
EphA3-EphrinA5 (Homo sapiens, UniProt P29320)

>  <Qualitative label>
0.0

$$$$
>  <Smiles string>
Oc1ccc(CN2CCOCC2)c2cccnc12

>  <Tested system>
EphA3-EphrinA5 (Homo sapiens, UniProt P29320)

>  <Qualitative label>
1.0

$$$$

---

Tested system: EphrinB2-EphB2 (Homo sapiens)
Construct: soluble human EphB1-His, EphB2-His, and EphB4-His ectodomains; commercially available human EphrinB1-Fc (EB1), EphrinB2-Fc (EB2), and EphrinB3-Fc (EB3) ectodomain proteins; purchased
Sequence (P29323 19-543 limits assumed): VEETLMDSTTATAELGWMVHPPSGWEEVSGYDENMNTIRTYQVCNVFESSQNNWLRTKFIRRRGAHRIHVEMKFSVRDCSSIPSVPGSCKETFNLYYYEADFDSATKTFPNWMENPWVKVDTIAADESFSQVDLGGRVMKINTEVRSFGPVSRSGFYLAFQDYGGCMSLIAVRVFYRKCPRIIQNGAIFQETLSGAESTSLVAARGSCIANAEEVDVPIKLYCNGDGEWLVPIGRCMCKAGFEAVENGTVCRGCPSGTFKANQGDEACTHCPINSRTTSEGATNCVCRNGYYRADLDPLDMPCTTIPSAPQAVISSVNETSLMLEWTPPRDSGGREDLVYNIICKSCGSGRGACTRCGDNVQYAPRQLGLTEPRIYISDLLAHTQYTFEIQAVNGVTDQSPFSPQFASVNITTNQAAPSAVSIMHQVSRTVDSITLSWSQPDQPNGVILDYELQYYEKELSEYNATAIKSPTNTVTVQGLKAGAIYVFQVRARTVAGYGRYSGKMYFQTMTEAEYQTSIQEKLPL
Experiment description: Octet tetramerization inhibition, immobilized human EphrinB2 binding to 50 nM soluble human EphB2
Experimental conditions: Relative Association IC50 (300 sec), Table A, EphrinB2-EphB2
Exam item: assign yes (1) to entries whose IC50 is below 0.9 µM and no (0) to entries at or above 0.9 µM. Note that a value of exactly 0.9 µM receives no (0).

>  <Compound>
Oc1ccc(CN2CCOCC2)c2cccnc12 [Compound 1, 5-(morpholinomethyl)quinolin-8-ol]

>  <Qualitative label>
no (0)

$$$$
>  <Compound>
Oc1c(Br)cc(CN2CCN(Cc3ccc(Br)cc3)CC2)c2cccnc12 [Compound 44]

>  <Qualitative label>
yes (1)

$$$$
>  <Compound>
COc1ccccc1N1CCN(Cc2ccc(O)c3ncccc23)CC1

>  <Qualitative label>
no (0)

$$$$
>  <Compound>
COc1ccc(N2CCN(Cc3cc(Br)c(O)c4ncccc34)CC2)cc1

>  <Qualitative label>
no (0)

$$$$
>  <Compound>
Nc1ccc(N2CCN(Cc3ccc(O)c4ncccc34)CC2)cc1

>  <Qualitative label>
no (0)

$$$$
>  <Compound>
O=[N+]([O-])c1cc(CN2CCOCC2)c2cccnc2c1O [Compound 9]

>  <Qualitative label>
no (0)

$$$$
>  <Compound>
Oc1ccc(CN2CCN(Cc3ccc(C(F)(F)F)cc3)CC2)c2cccnc12

>  <Qualitative label>
no (0)

$$$$
>  <Compound>
Oc1c(Br)cc(CN2CCN(Cc3ccc(Br)cc3)CC2)c2cccnc12 [Compound 45]

>  <Qualitative label>
yes (1)

$$$$

Source: patent US20260374739A1
